Data provenance is ChEMBL document CHEMBL1136650.

# reported pIC50; entries follow
- assay.system: Genome polyprotein (Hepatitis C virus genotype 1a (isolate 1) (HCV), UniProt P26664)
- Sequence (P26664 1027-1657 limits assumed): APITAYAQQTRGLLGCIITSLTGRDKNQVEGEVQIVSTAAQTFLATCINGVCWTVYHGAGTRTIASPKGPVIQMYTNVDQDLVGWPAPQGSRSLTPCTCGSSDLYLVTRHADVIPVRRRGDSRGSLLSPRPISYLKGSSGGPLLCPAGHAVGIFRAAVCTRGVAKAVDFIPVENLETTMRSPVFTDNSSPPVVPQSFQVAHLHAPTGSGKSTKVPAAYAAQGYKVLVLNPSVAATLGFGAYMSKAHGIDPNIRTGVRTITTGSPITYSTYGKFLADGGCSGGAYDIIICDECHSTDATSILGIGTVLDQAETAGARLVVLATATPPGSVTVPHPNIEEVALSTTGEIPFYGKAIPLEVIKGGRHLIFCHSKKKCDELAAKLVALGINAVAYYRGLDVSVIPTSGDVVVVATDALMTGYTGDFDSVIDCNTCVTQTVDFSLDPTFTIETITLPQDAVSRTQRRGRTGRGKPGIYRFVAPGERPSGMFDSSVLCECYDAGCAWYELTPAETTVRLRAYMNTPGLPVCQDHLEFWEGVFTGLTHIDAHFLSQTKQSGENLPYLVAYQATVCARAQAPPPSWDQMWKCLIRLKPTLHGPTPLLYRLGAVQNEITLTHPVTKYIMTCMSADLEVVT
- assay.info: Inhibitory concentration against HCV NS3 protease was determined
Numbered stars: 1 amine (or outer) side, 2 acyl side, 3 side chain; on linkers, the order of the positions; unused ones are H or OH. Square brackets hold non-standard residues; d marks the D form. Peptide text beside a SMILES is read from it. * marks the point of attachment. Abu(ψCOCO) = CC[C@H](N[*:1])C(=O)C(=O)[*:2]; X1 = O=C(C(=O)[*:2])[C@H](CC(F)F)N[*:1]; Pyrazinecarbonyl = O=C(c1cnccn1)*; Cha = N[C@@H](CC1CCCCC1)C(=O)O
Give only the number. pIC50 is defined as minus log10 of concentration in molar units.

compound	pIC50
CC[C@H](NC(=O)[C@H](CC1CCCCC1)NC(=O)[C@@H](NC(=O)[C@H](CC(C)C)NC(=O)c1cnccn1)[C@@H](C)CC)C(=O)C(=O)N[C@H](C(=O)O)C(C)C (Pyrazinecarbonyl-LI[Cha][Abu(ψCOCO)]V-OH)	5.44

Q: Any idea what its pIC50 is? The compound is `C#CCNC(=O)C(=O)[C@H](CC)NC(=O)[C@H](CC1CCCCC1)NC(=O)[C@@H](NC(=O)[C@H](CC(C)C)NC(=O)c1cnccn1)[C@@H](C)CC`
A: 5.80

Q: Follow-up entry: `CC[C@H](NC(=O)[C@H](CC1CCCCC1)NC(=O)[C@@H](NC(=O)[C@H](CC(C)C)NC(=O)c1cnccn1)[C@@H](C)CC)C(=O)C(=O)NCCC(=O)O`
A: 4.92

Q: Follow-up entry: `CC[C@H](NC(=O)[C@H](CC1CCCCC1)NC(=O)[C@@H](NC(=O)[C@H](CC(C)C)NC(=O)c1cnccn1)[C@@H](C)CC)C(=O)C(=O)N1CCCC1`
A: 4.38

Q: Follow-up entry: CC[C@H](C)[C@H](NC(=O)[C@H](CC(C)C)NC(=O)c1cnccn1)C(=O)N[C@@H](CC1CCCCC1)C(=O)N[C@@H](CC(F)F)C(=O)C(=O)NCC(=O)O (Pyrazinecarbonyl-LI[Cha][X1]G-OH)
A: 7.22
